tested on: soft rot in Chinese cabbages; assay: whole plant or invertebrate; conditions: 48 h, read-out: efficacy against soft rot in Chinese cabbages
EXPERIMENTAL_READOUT: pest or weed control at 5 ppm

Solved entries (count: 3):
Requested field: pest or weed control at 5 ppm. Item: COCCOC(=O)c1cn(C2CC2)c2cc(N3CCCCC3)c(F)cc2c1=O
≥ 90%

Request the reported pest or weed control at 5 ppm associated with CCOCCOC(=O)c1cn(C2CC2)c2cc(SCC)c(F)cc2c1=O
≥ 80%

Item COCCCOC(=O)c1cn(C2CC2)c2cc(F)ccc2c1=O has what recorded pest or weed control at 5 ppm?
≥ 90%

New cases:
Reported pest or weed control at 5 ppm for CCOc1cc2c(cc1F)c(=O)c(C(=O)OCCOC)cn2C1CC1 : what is it?
≥ 90%

Endpoint output: pest or weed control at 5 ppm of COCOC(=O)c1cn(C2CC2)c2cc(Cl)c(F)cc2c1=O . Value?
≥ 80%

Need pest or weed control at 5 ppm of COCCOC(=O)c1cn(C2CC2)c2cc(SCC(F)(F)F)c(F)cc2c1=O , thanks.
≥ 90%
